Source: patent US20260193272A1

Listed next: entries and their corresponding pIC50.
# assay.system: PAD4 enzyme (Homo sapiens, UniProt Q9UM07)
# Construct: PAD4 enzyme was diluted to 30 nM in Assay Buffer
# Sequence (Q9UM07 whole entry): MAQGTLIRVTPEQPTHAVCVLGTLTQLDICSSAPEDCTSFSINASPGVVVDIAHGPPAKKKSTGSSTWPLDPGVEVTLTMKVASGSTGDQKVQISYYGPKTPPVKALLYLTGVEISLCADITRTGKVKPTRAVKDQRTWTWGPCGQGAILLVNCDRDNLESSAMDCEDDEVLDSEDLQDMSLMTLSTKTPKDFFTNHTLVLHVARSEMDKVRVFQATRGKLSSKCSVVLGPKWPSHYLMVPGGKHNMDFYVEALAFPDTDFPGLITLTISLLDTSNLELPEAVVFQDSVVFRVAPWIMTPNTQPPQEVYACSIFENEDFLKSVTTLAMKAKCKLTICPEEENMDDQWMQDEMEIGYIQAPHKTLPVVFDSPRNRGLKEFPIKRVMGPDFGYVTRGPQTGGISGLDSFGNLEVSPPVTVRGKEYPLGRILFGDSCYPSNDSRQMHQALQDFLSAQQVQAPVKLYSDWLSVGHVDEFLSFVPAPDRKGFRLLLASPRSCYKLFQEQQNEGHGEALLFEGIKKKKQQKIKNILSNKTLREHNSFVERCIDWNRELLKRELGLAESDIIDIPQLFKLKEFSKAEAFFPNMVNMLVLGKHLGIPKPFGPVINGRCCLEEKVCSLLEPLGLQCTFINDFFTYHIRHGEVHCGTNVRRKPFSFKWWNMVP
# measurement.protocol: In-vitro measurement for enzymatic PAD4 citrullination inhibition activity (ammonia release)
# Assay type: biochemical
# conditions: read-out: IC50 of inhibition enzymatic activity of PAD4 (Colorimetric assays, Nature Chemical Biology, 2015, 11: 189-191)
pIC50: −log10 of the molar value.

{"compound": "COc1ccccc1-c1nc2c(cc(-c3nc4cc(C(=O)N5C[C@H]6CC[C@@H]5[C@@H]6N)cc(OC)c4n3C)n2CC2CC2)[se]1 [HH-39]", "result.type": "pIC50", "reported.value": "< 6.30"}
{"compound": "COc1cc(C(=O)N2C[C@H](N)CC[C@@H]2C)cc2nc(-c3cc4cc[se]c4n3CC3CC3)n(C)c12 [HH-65]", "result.type": "pIC50", "reported.value": "7.00 to 7.30"}
{"compound": "CCn1c(-c2nc3cc(C(=O)N4C[C@H](N)CC[C@@H]4C)cc(OC)c3n2C)cc2[se]c(C)nc21 [HH-19]", "result.type": "pIC50", "reported.value": "6.30 to 7.00"}
{"compound": "COc1cc(C(=O)N2C[C@H]3CC[C@@H]2[C@@H]3N)cc2nc(-c3cc4[se]c(-c5ccccn5)nc4n3CC3CC3)n(C)c12 [HH-44]", "result.type": "pIC50", "reported.value": "6.30 to 7.00"}
{"compound": "Cc1nc2c(cc(-c3nc4cc(C(=O)N5C[C@H](N)CC[C@@H]5C)ccn4c3C)n2CC2CC2)[se]1 [HH-75]", "result.type": "pIC50", "reported.value": "≥ 7.30"}

Requested read-out: pIC50. Entry: COc1cc(C(=O)N2C[C@H](N)CC[C@@H]2C)cc2nc(-c3cc4[se]c(C)nc4n3CC3CCC3)n(C)c12 [HH-15]
≥ 7.30

Now the compound COc1cc(C(=O)N2C[C@H](N)CC[C@@H]2C)cc2nc(-c3cc4[se]c(C)nc4n3Cc3ccoc3)n(C)c12 [HH-32]
6.30 to 7.00

----------
# assay.system: PAD4 enzyme (Homo sapiens, UniProt Q9UM07)
# Construct: PAD4 enzyme was diluted to 30 nM in Assay Buffer
# measurement.protocol: In-vitro measurement for enzymatic PAD4 citrullination inhibition activity (ammonia release)
# Assay type: biochemical
# conditions: read-out: IC50 of inhibition enzymatic activity of PAD4 (Colorimetric assays, Nature Chemical Biology, 2015, 11: 189-191)
pIC50: −log10 of the molar value.
result.type: pIC50

Reference set, count: 3
{"cpd.smiles": "COc1cc(C(=O)N2C[C@H](N)C[C@@H](F)C2)cc2nc(-c3cc4[se]c(-c5ccncc5)nc4n3CC3CC3)n(C)c12", "reported.value": "6.30 to 7.00"}
{"cpd.smiles": "COc1cc(C(=O)N2C[C@H]3CC[C@@H]2[C@@H]3N)cc2nc(-c3cc4[se]c(-c5ccccn5)cc4n3CC3CC3)n(C)c12", "reported.value": "6.30 to 7.00"}
{"cpd.smiles": "COc1cc(C(=O)N2C[C@H](N)C[C@@H](F)C2)cn2nc(-c3cc4[se]c(C)nc4n3CC3CC3)c(C)c12", "reported.value": "7.00 to 7.30"}

// switching to the query compound
Requested read-out: pIC50. Entry: Cc1nc2c(cc(-c3nc4cc(C(=O)N5C[C@H]6CC[C@@H]5[C@@H]6N)ccn4c3C)n2CC2CC2)[se]1
7.00 to 7.30

----------
# assay.system: PAD4 enzyme (Homo sapiens)
# Construct: PAD4 enzyme was diluted to 30 nM in Assay Buffer
# measurement.protocol: In-vitro measurement for enzymatic PAD4 citrullination inhibition activity (ammonia release)
# Format: biochemical
# conditions: read-out: IC50 of inhibition enzymatic activity of PAD4 (Colorimetric assays, Nature Chemical Biology, 2015, 11: 189-191)
result.type: IC50

Reference set, count: 5
{"cpd.smiles": "COc1cc(C(=O)N2C[C@H](N)CC[C@@H]2C)cc2nc(-c3cc4[se]c(-c5ccccn5)cc4n3CC3CC3)n(C)c12", "IC50": "50 to 100 nM"}
{"cpd.smiles": "COc1cc(C(=O)N2C[C@H](N)C[C@@H](F)C2)cc2nc(-c3cc4[se]ccc4n3CC3CC3)n(C)c12", "IC50": "50 to 100 nM"}
{"cpd.smiles": "COc1cc(C(=O)N2CCC[C@@H](N)C2)cc2nc(-c3cc4[se]c(C)nc4n3CC3CCC3)n(C)c12", "IC50": "≤ 50 nM"}
{"cpd.smiles": "COc1cc(C(=O)N2C[C@H](N)C[C@@H](F)C2)cc2nc(-c3cc4[se]c(C)nc4n3CC3CC3)n(C)c12", "IC50": "≤ 50 nM"}
{"cpd.smiles": "CCc1nc2c(cc(-c3nc4cc(C(=O)N5C[C@H](N)C[C@@H](F)C5)cc(OC)c4n3C)n2CC2CC2)[se]1", "IC50": "≤ 50 nM"}

Requested read-out: IC50. Entry: COc1cc(C(=O)N2C[C@H](N)CC[C@@H]2C)cc2nc(-c3cc4[se]c(C)cc4n3CC3CC3)n(C)c12
≤ 50 nM

Now the compound CCn1c(-c2nc3cc(C(=O)N4C[C@H](N)C[C@@H](F)C4)cc(OC)c3n2C)cc2[se]c(C)nc21
100 to 500 nM

Now the compound CCn1c(-c2nc3cc(C(=O)N4C[C@H]5CC[C@@H]4[C@@H]5N)cc(OC)c3n2C)cc2[se]c(C)nc21
100 to 500 nM

Now the compound COc1cc(C(=O)N2C[C@H](N)C[C@@H](F)C2)cc2nc(-c3cc4[se]c(C5CCNCC5)nc4n3CC3CC3)n(C)c12
100 to 500 nM

----------
# assay.system: PAD4 enzyme (Homo sapiens, UniProt Q9UM07)
# Construct: PAD4 enzyme was diluted to 30 nM in Assay Buffer
# measurement.protocol: In-vitro measurement for enzymatic PAD4 citrullination inhibition activity (ammonia release)
# Assay type: biochemical
# conditions: direct comparison of prior art and selenium containing compounds; read-out: IC50 for enzymatic PAD4 citrullination inhibition
pIC50: −log10 of the molar value.
result.type: pIC50

{"compound": "COc1cc(C(=O)N2CCC[C@@H](N)C2)cc2nc(-c3cc4[se]c(C5CC5)nc4n3CC3CC3)n(C)c12 [HH-4]", "pIC50": 7.65}

1: COc1cc(C(=O)N2C[C@H]3CC[C@@H]2[C@@H]3N)cc2nc(-c3cc4[se]c(C)cc4n3CC3CC3)n(C)c12 [HH-52]
2: COc1cc(C(=O)N2C[C@H]3CC[C@@H]2[C@@H]3N)cc2nc(-c3cc4sc(C)cc4n3CC3CC3)n(C)c12 [Cpd-27, reference compound]
3: COc1cc(C(=O)N2CCC[C@@H](N)C2)cc2nc(-c3cc4sc(C5CC5)nc4n3CC3CC3)n(C)c12 [Cpd-118, reference compound]
Order field: pIC50 | Direction: descending (largest first) // list labels; follow requested order
1, 3, 2
(1: 7.60, 3: 7.17, 2: 6.57)

----------
# assay.system: PAD4 enzyme (Homo sapiens)
# Construct: PAD4 enzyme was diluted to 30 nM in Assay Buffer
# measurement.protocol: In-vitro measurement for enzymatic PAD4 citrullination inhibition activity (ammonia release)
# Type: biochemical
# conditions: read-out: IC50 of inhibition enzymatic activity of PAD4 (Colorimetric assays, Nature Chemical Biology, 2015, 11: 189-191)
Listed next: entries and their corresponding IC50.

Reference set, count: 5
{"cpd.smiles": "Cc1c(-c2cc3[se]c(-c4ccccn4)nc3n2CC2CC2)nn2cc(C(=O)N3C[C@H](N)C[C@@H](F)C3)ccc12", "IC50": "0.1 to 0.5 µM"}
{"cpd.smiles": "COc1ccccc1-c1nc2c(cc(-c3nc4cc(C(=O)N5C[C@H](N)CC[C@@H]5C)cc(OC)c4n3C)n2CC2CC2)[se]1", "IC50": "0.1 to 0.5 µM"}
{"cpd.smiles": "COc1cc(C(=O)N2C[C@H]3CC[C@@H]2[C@@H]3N)cc2nc(-c3cc4[se]c(-c5cccc(C)c5)cc4n3CC3CC3)n(C)c12", "IC50": "0.1 to 0.5 µM"}
{"cpd.smiles": "COc1cc(C(=O)N2C[C@H](N)C[C@@H](F)C2)cc2nc(-c3cc4[se]c(C)cc4n3CC3CC3)n(C)c12", "IC50": "≤ 0.05 µM"}
{"cpd.smiles": "COc1cc(C(=O)N2C[C@H]3CC[C@@H]2[C@@H]3N)cc2nc(-c3cc4[se]c(C5CC5)nc4n3CC3CC3)n(C)c12", "IC50": "≤ 0.05 µM"}

Requested read-out: IC50. Entry: COc1cc(C(=O)N2C[C@H]3CC[C@@H]2[C@@H]3N)cc2nc(-c3cc4[se]c(C)nc4n3Cc3ccncc3)n(C)c12
0.1 to 0.5 µM

Now the compound COc1cc(C(=O)N2C[C@H]3CC[C@@H]2[C@@H]3N)cn2nc(-c3cc4[se]c(C)nc4n3CC3CC3)c(C)c12
0.05 to 0.1 µM
